Just for reference, patent US11739074B2 is where these values come from.

For each record, write down the corresponding pIC50.
TESTED SYSTEM: KRAS G13C (Homo sapiens, UniProt P01116+P62937, G13C)
Sequence (P01116 1-169 isoform P01116-2 G13C limits assumed, one chain of several): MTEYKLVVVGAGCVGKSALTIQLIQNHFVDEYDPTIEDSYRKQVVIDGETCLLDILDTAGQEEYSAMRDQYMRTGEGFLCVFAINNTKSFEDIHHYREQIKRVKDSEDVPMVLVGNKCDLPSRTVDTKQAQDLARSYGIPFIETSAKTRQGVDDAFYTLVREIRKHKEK
PROCEDURE SUMMARY: Ras-Raf disruption/FRET/MOA assay, KRAS G13C
Type: biochemical
CONDITION LABEL: disruption of BRAF RBD binding, with Cyclophilin A; read-out: KRAS G13C FRET IC50
pIC50: −log10 of the molar value.

# map each compound to its pIC50
1. CCn1c(-c2cnccc2COC)c2c3cc(ccc31)-c1cccc(c1)C[C@H](NC(=O)[C@H](C(C)C)N(C)C(=O)[C@H]1CC[C@H](N=C=Nc3ccc(OC)cc3)C1)C(=O)N1CCC[C@H](N1)C(=O)OCC(C)(C)C2 [71 A and B]
2. CCn1c(-c2cccnc2[C@H](C)OC)c2c3cc(ccc31)-c1csc(n1)C[C@H](NC(=O)[C@H](C(C)C)N(C)C(=O)N1CCC[C@H](N(C)C(=O)[C@H]3CN3)C1)C(=O)N1CCC[C@H](N1)C(=O)OCC(C)(C)C2 (atropisomer, axis not shown) [Compound 290]

Result:
< 5.00
6.00 to 7.00

* * *

TESTED SYSTEM: KRAS G12V (Homo sapiens, UniProt P01116+P62937, G12V)
Sequence (P01116 1-169 isoform P01116-2 G12V limits assumed): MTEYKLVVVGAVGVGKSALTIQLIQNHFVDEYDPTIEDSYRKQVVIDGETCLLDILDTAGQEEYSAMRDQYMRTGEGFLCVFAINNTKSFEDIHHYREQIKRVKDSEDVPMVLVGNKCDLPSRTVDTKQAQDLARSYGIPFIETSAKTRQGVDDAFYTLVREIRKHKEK
Sequence (P62937 whole entry): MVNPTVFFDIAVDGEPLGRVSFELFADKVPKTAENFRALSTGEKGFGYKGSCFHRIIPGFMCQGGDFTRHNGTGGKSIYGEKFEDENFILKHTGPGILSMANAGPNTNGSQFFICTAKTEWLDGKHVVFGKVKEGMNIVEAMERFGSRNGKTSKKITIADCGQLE
PROCEDURE SUMMARY: Ras-Raf disruption/FRET/MOA assay, KRAS G12V
Type: biochemical
CONDITION LABEL: disruption of BRAF RBD binding, with Cyclophilin A; read-out: KRAS G12V FRET IC50
RECORDED ENDPOINT: IC50

Would you mind listing IC50 for each of the following molecules?
1. CCn1c(-c2cnccc2COC)c2c3cc(ccc31)-c1cccc(c1)C[C@H](NC(=O)[C@H](C(C)C)N(C)C(=O)[C@@H]1CC[C@@H](N=C=Nc3ccc(OC)cc3)C1)C(=O)N1CCC[C@H](N1)C(=O)OCC(C)(C)C2 [70 A and B]
2. CCn1c(-c2cccnc2[C@H](C)OC)c2c3cc(ccc31)-c1cc(cc(C(F)F)c1)C[C@H](NC(=O)[C@H](C1CCCC1)N1CC[C@]3(CCN(C(=O)[C@H]4CN4)C3)C1=O)C(=O)N1CCC[C@H](N1)C(=O)OCC(C)(C)C2 [Compound 233]

Result:
> 10 µM
1 to 10 µM

* * *

Please go through the items and note down their IC50.
Test system: NCI-H358 (K-Ras G12C)
PROCEDURE SUMMARY: CellTiter-Glo cell viability assay, H358
Format: cell-based
CONDITION LABEL: Homo sapiens, NCI-H358, 120 h, read-out: H358 Cell Viability IC50, NCI-H358, K-Ras G12C, 5-day treatment
Procedure: Determination of Cell Viability in RAS Mutant Cancer Cell Lines Protocol: CellTiter-Glo® Cell Viability Assay Note—The following protocol describes a procedure for monitoring cell viability of K-Ras mutant cancer cell lines in response to a compound of the invention. […] Test compounds (132.5 nL) were directly dispensed into the assay plates containing cells. […] Luminescence was measured using the PerkinElmer Enspire. […]

As a guide, the following entries are already answered.
COMPOUND | IC50
CCn1c(-c2cccnc2[C@H](C)OC)c2c3cc(ccc31)-c1cc(O)cc(c1)C[C@H](NC(=O)[C@H](C(C)C)N(C)C(=O)CNC(=O)[C@@H]1N[C@@H]1C1CC1)C(=O)N1CCC[C@H](N1)C(=O)OCC(C)(C)C2 | 100 to 1000 nM
CCn1c(-c2cnccc2COC)c2c3cc(ccc31)-c1cc(O)cc(c1)C[C@H](NC(=O)[C@H](C(C)C)N(C)C(=O)CN(C)C(=O)[C@@H]1CN1Cc1ccccc1)C(=O)N1CCC[C@H](N1)C(=O)OCC(C)(C)C2 (stereo partly shown) | 10 to 100 nM
CCn1c(-c2cccnc2[C@H](C)OC)c2c3cc(ccc31)-c1cc(O)cc(c1)C[C@H](NC(=O)[C@H](C(C)C)N(C)C(=O)CN(C)C(=O)[C@@H]1N[C@@H]1C1CC1)C(=O)N1CCC[C@H](N1)C(=O)OCC(C)(C)C2 | 10 to 100 nM

Note: attention shifts to another entry.
Task: Value wanted: IC50 (NCI-H358 (K-Ras G12C)) of entry `CCn1c(-c2cccnc2[C@H](C)OC)c2c3cc(ccc31)-c1cc(O)cc(c1)C[C@H](NC(=O)[C@H](C(C)C)N(C)C(=O)CN(C)C(=O)[C@@H]1N[C@H]1C(F)(F)F)C(=O)N1CCC[C@H](N1)C(=O)OCC(C)(C)C2`
Result: 10 to 100 nM
